Tested on: MCF7
Test: Cytotoxicity against human MCF7 cells incubated for 72 hrs under hypoxic condition by MTT assay
Type: functional, cell-based
Conditions: MCF7, 72 h
pIC50: −log10 of the molar value.
Hi, to clarify the labels: Condition met covers pIC50 from 6 upward, Condition not met covers anything below 6.

As a guide, the following entries are already answered.
| mol.smiles | group.label |
| --- | --- |
| C=C1/C=C/C(=O)N[C@@H](C)C(=O)N[C@H](C(C)C)C(=O)O[C@H]([C@@H](C)CCCCCC)[C@@H](CCO)C(=O)N1 | Condition not met |
| C=C1/C=C/C(=O)N[C@@H](C)C(=O)N[C@H](C(C)C)C(=O)O[C@H]([C@@H](C)CCCCCC)[C@@H](CCO[Si](c2ccccc2)(c2ccccc2)C(C)(C)C)C(=O)N1 | Condition not met |
| C=C1/C=C/C(=O)N(C)CC(=O)N[C@@H]([C@H](O)C(=O)OC)C(=O)O[C@@H]([C@H](C)CCCCCCCCCCCC(C)C)[C@H](C)C(=O)N1 | Condition met |
| C=C1/C=C/C(=O)N[C@@H](C)C(=O)N[C@H](C(C)C)C(=O)O[C@H]([C@@H](C)CCC)[C@@H](CCO)C(=O)N1 | Condition not met |
| C=C1/C=C/C(=O)N[C@@H](C)C(=O)N[C@H](C(C)C)C(=O)O[C@H]([C@H](C)CCCCCC)[C@@H](CCO[Si](c2ccccc2)(c2ccccc2)C(C)(C)C)C(=O)N1 | Condition not met |

Continue with the next molecule.
Could you verify whether the entry C=C1/C=C/C(=O)NCC(=O)N[C@@H](C(C)C)C(=O)O[C@@H]([C@H](C)CCCCCC)[C@H](CCO[Si](c2ccccc2)(c2ccccc2)C(C)(C)C)C(=O)N1 shows pIC50 of no less than 6?
Condition not met

----------
Assay: Toxicity in wild-type zebrafish AB assessed as mortality at 50 ug/ml
Set-up: species or system Danio rerio
Conditions: in vivo
Recorded mortality at 50 ug/ml by entry
Entry rule: numbers only, all in %.

| mol.smiles | mortality at 50 ug/ml / % |
| --- | --- |
| Cc1ccc(NC(=O)c2ccc(CN3CCN(C)CC3)cc2)cc1Nc1nccc(-c2cccnc2)n1 | 0 |

For C=C1/C=C/C(=O)N[C@H](C)C(=O)N[C@@H](C(C)C)C(=O)O[C@@H]([C@H](C)CCCCCC)[C@H](CCO[Si](c2ccccc2)(c2ccccc2)C(C)(C)C)C(=O)N1 , what is its reported mortality at 50 ug/ml?
0

----------
Assay: Half life in Sprague-Dawley rat plasma at 1 mg/ml by HPLC analysis
Assay type: ADME, cell-free
measured.attribute: half-life at 1 mg/ml (h)
Entry rule: numbers only, all in h.

| mol.smiles | half-life at 1 mg/ml, h |
| --- | --- |
| C=C1/C=C/C(=O)N[C@H](C)C(=O)N[C@@H](C(C)C)C(=O)O[C@@H]([C@H](C)CCCCCC)[C@H](CCO[Si](c2ccccc2)(c2ccccc2)C(C)(C)C)C(=O)N1 | 14.3 |
| C=C1/C=C/C(=O)N[C@@H](C)C(=O)N[C@H](C(C)C)C(=O)O[C@H]([C@@H](C)CCCCCC)[C@@H](CCO)C(=O)N1 | 0.54 |

Pending compound:
For C=C1/C=C/C(=O)N(C)CC(=O)N[C@@H](C(C)C)C(=O)O[C@@H]([C@H](C)CCCCCC)[C@H](CCO[Si](c2ccccc2)(c2ccccc2)C(C)(C)C)C(=O)N1 , what is its reported half-life at 1 mg/ml?
20.1

----------
Test: Toxicity in wild-type zebrafish AB assessed as mortality at 20 ug/ml
Set-up: species or system Danio rerio
Details: in vivo
measured.attribute: mortality at 20 ug/ml (%)
Entry rule: numbers only, all in %.

| compound | measured.attribute | readout.number |
| --- | --- | --- |
| C=C1/C=C/C(=O)N[C@H](C)C(=O)N[C@@H](C(C)C)C(=O)O[C@@H]([C@H](C)CCCCCC)[C@H](CCO[Si](c2ccccc2)(c2ccccc2)C(C)(C)C)C(=O)N1 | mortality at 20 ug/ml | 0 |

Pending compound:
For Cc1ccc(NC(=O)c2ccc(CN3CCN(C)CC3)cc2)cc1Nc1nccc(-c2cccnc2)n1 [IMATINIB] , what is its reported mortality at 20 ug/ml?
0

----------
System: MCF7
Experiment: Cytotoxicity against human MCF7 cells incubated for 72 hrs under hypoxic condition by MTT assay
Type: functional, cell-based
Conditions: MCF7, 72 h
Recorded IC50 by entry
Entry rule: numbers only, all in µM.

| mol.smiles | measured.attribute | readout.number |
| --- | --- | --- |
| C=C1/C=C/C(=O)N(C)CC(=O)N[C@@H]([C@H](O)C(N)=O)C(=O)O[C@@H]([C@H](C)CCCCCCCCCCCC(C)C)[C@H](C)C(=O)N1 | IC50 | 0.08 |
| C=C1/C=C/C(=O)N[C@@H](C)C(=O)N[C@H](C(C)C)C(=O)O[C@@H]([C@H](C)CCCCCC)[C@H](CCO[Si](c2ccccc2)(c2ccccc2)C(C)(C)C)C(=O)N1 | IC50 | 2.93 |

For Nc1ccn([C@@H]2O[C@H](CO)[C@@H](O)C2(F)F)c(=O)n1 , what is its reported IC50?
8.9

For C=C1/C=C/C(=O)N[C@H](C)C(=O)N[C@@H](C(C)C)C(=O)O[C@@H]([C@H](C)CCCCCC)[C@H](CCO[Si](c2ccccc2)(c2ccccc2)C(C)(C)C)C(=O)N1 , what is its reported IC50?
6.81

For C=C1/C=C/C(=O)N[C@@H](C)C(=O)N[C@H](C(C)C)C(=O)O[C@@H]([C@H](C)CCCCCC)[C@H](CCOCc2ccc(OC)cc2)C(=O)N1 , what is its reported IC50?
7.98

----------
System: MCF7
Assay: Selectivity index, ratio of IC50 for human MCF7 cells under hypoxic condition to IC50 for human MCF7 cells under normoxic condition
Type: functional
Recorded Ratio IC50 by entry
The reply should be a number, written without any unit.

Solved cases below.
| compound | Ratio IC50 |
| --- | --- |
| C=C1/C=C/C(=O)N[C@@H](C)C(=O)N[C@H](C(C)C)C(=O)O[C@H]([C@@H](C)CCCCCC)[C@@H](CCO)C(=O)N1 | 0.74 |
| C=C1/C=C/C(=O)N[C@@H](C)C(=O)N[C@H](C(C)C)C(=O)O[C@H]([C@H](C)CCCCCC)[C@@H](CCO[Si](c2ccccc2)(c2ccccc2)C(C)(C)C)C(=O)N1 | 0.9 |
| C=C1/C=C/C(=O)N(C)CC(=O)N[C@@H]([C@H](O)C(N)=O)C(=O)O[C@@H]([C@H](C)CCCCCCCCCCCC(C)C)[C@H](C)C(=O)N1 | 0.27 |
| C=C1/C=C/C(=O)N[C@@H](C)C(=O)N[C@H](C(C)C)C(=O)O[C@H]([C@@H](C)CCCCCC)[C@@H](CCO[Si](c2ccccc2)(c2ccccc2)C(C)(C)C)C(=O)N1 | 1.37 |
| Nc1ccn([C@@H]2O[C@H](CO)[C@@H](O)C2(F)F)c(=O)n1 [GEMCITABINE] | 15.6 |

Pending compound:
What Ratio IC50 appears in the records for this compound with MCF7? C=C1/C=C/C(=O)N(C)CC(=O)N[C@@H]([C@H](O)C(=O)OC)C(=O)O[C@@H]([C@H](C)CCCCCCCCCCCC(C)C)[C@H](C)C(=O)N1
0.38

----------
Recorded mortality at 0.8 ug/ml by entry
Test: Toxicity in wild-type zebrafish AB assessed as mortality at 0.8 ug/ml
Parameters: species or system Danio rerio
Details: in vivo
Entry rule: numbers only, all in %.

| mol.smiles | mortality at 0.8 ug/ml, % |
| --- | --- |
| C=C1/C=C/C(=O)N[C@H](C)C(=O)N[C@@H](C(C)C)C(=O)O[C@@H]([C@H](C)CCCCCC)[C@H](CCO[Si](c2ccccc2)(c2ccccc2)C(C)(C)C)C(=O)N1 | 0 |

For Cc1ccc(NC(=O)c2ccc(CN3CCN(C)CC3)cc2)cc1Nc1nccc(-c2cccnc2)n1 , what is its reported mortality at 0.8 ug/ml?
0
